ASSAY METHOD TEXT: NCI Yeast Anticancer Drug Screen. Data for the cln2 rad14 strain (AID 165)
CONDITION CONTEXT: S. cerevisiae cln2 rad14 strain, at 50.0 µM
About 79,000 compounds went through this panel and 15% of them were active in at least one assay; those are over-represented in the sample as a whole. Activity calls are given as the source filed them. No stated cut-off is given here; in the data, active means growth inhibition above about 70%; inactive means the rest.
Possible outcomes: active, inactive

{"COMPOUND": "CC(C=O)[Se]c1ccccc1 (stereo not given)", "ASSIGNED CLASS": "inactive"}
{"COMPOUND": "CCOC(=O)C1=C(OC(OCC)C(CC)[Se]c2ccccc2)CCC1 (stereo not given)", "ASSIGNED CLASS": "inactive"}
{"COMPOUND": "COc1cccc(C=C2C(=O)NC(=S)NC2=O)c1O", "ASSIGNED CLASS": "inactive"}
{"COMPOUND": "NNc1c(C(N)=O)c2c(N)ncnc2n1C1OC(CO)C(O)C1O (stereo not given)", "ASSIGNED CLASS": "inactive"}
{"COMPOUND": "C=C1C(=O)O[C@@H]2C[C@@H](C)[C@@H]3C=CC(=O)[C@@]3(C)[C@@H](O)[C@H]12", "ASSIGNED CLASS": "inactive"}
{"COMPOUND": "CC(=O)Nc1c2sscc-2n(C)c1=O", "ASSIGNED CLASS": "active"}
{"COMPOUND": "CN1CCC23CC=CCC2C1Cc1ccc([N+](=O)[O-])cc13 (stereo not given)", "ASSIGNED CLASS": "inactive"}
{"COMPOUND": "C[CH2][Sn](=[O])[c]1ccccc1", "ASSIGNED CLASS": "inactive"}
{"COMPOUND": "CS(=O)(=O)OC1C2CC(C1OS(C)(=O)=O)C(c1ccccc1)C2C(=O)O (stereo not given)", "ASSIGNED CLASS": "inactive"}
{"COMPOUND": "CC(=O)c1ccccc1N=Nc1ccc(N(CCCl)CCCl)cc1", "ASSIGNED CLASS": "inactive"}
{"COMPOUND": "CCC1(c2c(F)c(F)c(N)c(F)c2F)CCC(=O)NC1=O (stereo not given)", "ASSIGNED CLASS": "inactive"}
{"COMPOUND": "CCCN(CCC)CC(O)c1ccc2c3c(cccc13)CC2 (stereo not given)", "ASSIGNED CLASS": "inactive"}
{"COMPOUND": "Nc1ccccc1C(=O)O", "ASSIGNED CLASS": "inactive"}
{"COMPOUND": "CC(NCCO)C(O)c1ccccc1 (stereo not given)", "ASSIGNED CLASS": "inactive"}
{"COMPOUND": "O=C([O-])c1ccccc1Nc1ccccn1.O=C([O-])c1ccccc1Nc1ccccn1.[Ni+2]", "ASSIGNED CLASS": "inactive"}
{"COMPOUND": "COc1ccc2c(c1O)-c1cc(O)cc3c1C(C2)NCC3 (stereo not given)", "ASSIGNED CLASS": "inactive"}
{"COMPOUND": "CN(C)C(=S)[S][Hg][c]1ccccc1", "ASSIGNED CLASS": "active"}
{"COMPOUND": "O=[N+]([O-])CCCl", "ASSIGNED CLASS": "inactive"}
{"COMPOUND": "C=CC(=O)NCO", "ASSIGNED CLASS": "inactive"}
{"COMPOUND": "CC1(C)Cc2cccc(C=C(C#N)C#N)c2O1", "ASSIGNED CLASS": "inactive"}
{"COMPOUND": "Cc1nccn1-c1ccc(Cl)cc1N=Cc1ccc(N(CCCl)CCCl)cc1Cl", "ASSIGNED CLASS": "inactive"}
{"COMPOUND": "O=C(Cc1c2ccccc2cc2c1ccc1ccccc12)N(CCCl)CCCl", "ASSIGNED CLASS": "active"}
{"COMPOUND": "C/C(=N\\N(C)C)C(CN(C)C)C(c1ccccc1)c1c(O)c2ccccc2oc1=O (stereo not given)", "ASSIGNED CLASS": "inactive"}
{"COMPOUND": "C[CH2][Sn]1([CH2]C)[O]S(=O)(=O)[O]1", "ASSIGNED CLASS": "inactive"}
{"COMPOUND": "COc1ccccc1CC(C)N (stereo not given)", "ASSIGNED CLASS": "inactive"}
{"COMPOUND": "NC1(O)C(=O)NC(=O)NC1=O", "ASSIGNED CLASS": "inactive"}
{"COMPOUND": "CC(C)(C)OC(=O)NCC(=O)NC(CSC(c1ccccc1)c1ccccc1)C(=O)NCC(=O)O (stereo not given)", "ASSIGNED CLASS": "inactive"}
{"COMPOUND": "CC1C2Cc3ccc(O)cc3C1(C)CCN2C (stereo not given)", "ASSIGNED CLASS": "inactive"}
{"COMPOUND": "N.N.N.O=N[O-].O=N[O-].O=N[O-].[Co+3]", "ASSIGNED CLASS": "inactive"}
{"COMPOUND": "Cc1nc2ccc(Br)cc2c(=O)n1-c1ccc(N)cc1", "ASSIGNED CLASS": "inactive"}
{"COMPOUND": "COc1cc([C@@H]2c3cc4c(c(O)c3C[C@H]3COC(=O)[C@@H]32)OCO4)cc(OC)c1O", "ASSIGNED CLASS": "inactive"}
{"COMPOUND": "CC1=CC(C)=Nc2ccc(C)cc2N1", "ASSIGNED CLASS": "inactive"}
{"COMPOUND": "Cc1c(O)c(O)c(C)c(CCN)c1O", "ASSIGNED CLASS": "inactive"}
{"COMPOUND": "O=C1C(C(Nc2ccccc2)c2ccccc2)=C([O-])c2ccccc21.O=C1C(C(Nc2ccccc2)c2ccccc2)=C([O-])c2ccccc21.[Co+2] (stereo not given)", "ASSIGNED CLASS": "inactive"}
{"COMPOUND": "CC(N)CN.CC(N)CN.[Cl-].[O]=[Os+2]=[O] (stereo not given)", "ASSIGNED CLASS": "inactive"}
{"COMPOUND": "O=C1NC(=S)NC(=O)C1=CC1CC1", "ASSIGNED CLASS": "inactive"}
{"COMPOUND": "CC1=NN(c2ccccc2)C(=O)C1N=Nc1ccc([As](=O)(O)O)c(O)c1 (stereo not given)", "ASSIGNED CLASS": "inactive"}
{"COMPOUND": "COCCOC(=O)CCl", "ASSIGNED CLASS": "inactive"}
{"COMPOUND": "CC1(C)CC(=O)CC(C)(C)C1", "ASSIGNED CLASS": "inactive"}
{"COMPOUND": "Cc1nnc2n1-c1ccccc1C(=S)N1CSCC21 (stereo not given)", "ASSIGNED CLASS": "inactive"}
{"COMPOUND": "COc1ccc(CCNC2CC3CCC2(C)C3(C)C)cc1OC (stereo not given)", "ASSIGNED CLASS": "inactive"}
{"COMPOUND": "CC(=O)c1ccc([As]=O)cc1 (stereo not given)", "ASSIGNED CLASS": "active"}
{"COMPOUND": "Cc1cc2[nH]c3c(C#N)c(OC(=O)N(C)C)c(C)c(=O)n3c2cc1C", "ASSIGNED CLASS": "inactive"}
{"COMPOUND": "OC[P+](CO)(CO)CO", "ASSIGNED CLASS": "inactive"}
{"COMPOUND": "C[C@]12CCC(O)CC1=CC[C@@H]1[C@@H]2CC[C@]2(C)C(=O)[C@H](n3ccnc3)C[C@@H]12 (stereo not given in full)", "ASSIGNED CLASS": "inactive"}
